- TEST SYSTEM: Protein kinase C alpha type (Homo sapiens)
- MEASUREMENT CONDITIONS: at 10 µM
REPORTED PROPERTY: residual activity (%)
Your answer is read as %, so omit the unit and give the number.

COc1cccc(-c2cc(=O)c3ccccc3o2)c1N    104
Cc1ccc(NC2=CC(=O)c3sc(C)nc3C2=O)cc1    105
O=C1Nc2cc(Br)ccc2/C1=C1/Nc2ccccc2/C1=N\O    104

Ask: Param readout = residual activity; param system = Protein kinase C alpha type (Homo sapiens); param query = Cn1cnc2cc3c(Nc4cccc(Br)c4)ncnc3cc21 ; response: value
Result: 98

Ask: Param readout = residual activity; param system = Protein kinase C alpha type (Homo sapiens); param query = Cc1nc(-c2ccccc2)c(-c2ccncc2)o1 ; response: value
Result: 101

Ask: Param readout = residual activity; param system = Protein kinase C alpha type (Homo sapiens); param query = CC(C)n1cnc2/c(=N/c3cccc(Cl)c3)nc(NCCO)[nH]c21 ; response: value
Result: 63
